- Test system: NCI-H23
Out of some 58,000 sequences screened, about 3,600 (6.2%) were called active. Many of the other results were omitted from the sample, so actives are more common in it than they were. Measured potencies and affinities stand elsewhere.
Metric Name: GI50 (µM)
Answer format: numeric, µM implied, no suffix.

Look over these answered cases.
Substance	Target System	GI50 (µM)
[Bis(aminomethyl)diethylsilane]tetrachloroplatinum(IV), CHEMBL2146203	NCI-H23	2.79
[Bis(aminomethyl)tetramethylenesilane]dichloropaltinum(II), CHEMBL2146205	NCI-H23	13.5
[Bis(aminomethyl)pentamethylenesilane]dichloropaltinum(II), CHEMBL2146202	NCI-H23	4.59
[Bis(aminomethyl)tetramethylenesilane]tetrachloropaltinum(IV), CHEMBL2146189	NCI-H23	3.33

Now look at this entry.
Q) # value lookup — system NCI-H23, readout GI50, item mu-(1,7-nanodiamine-N,N')bis-(cis-aminedichloroplatimum (II)), CHEMBL2146215
A) 4.37
